- experimental_target: T1, hNPR1-ANP complex (human, UniProt P01160 124-151, limits assumed)
- T1 construct: hNPR1 antigen in the presence of ANP; also called hNPR1 + 100 nM ANP
- T1 sequence: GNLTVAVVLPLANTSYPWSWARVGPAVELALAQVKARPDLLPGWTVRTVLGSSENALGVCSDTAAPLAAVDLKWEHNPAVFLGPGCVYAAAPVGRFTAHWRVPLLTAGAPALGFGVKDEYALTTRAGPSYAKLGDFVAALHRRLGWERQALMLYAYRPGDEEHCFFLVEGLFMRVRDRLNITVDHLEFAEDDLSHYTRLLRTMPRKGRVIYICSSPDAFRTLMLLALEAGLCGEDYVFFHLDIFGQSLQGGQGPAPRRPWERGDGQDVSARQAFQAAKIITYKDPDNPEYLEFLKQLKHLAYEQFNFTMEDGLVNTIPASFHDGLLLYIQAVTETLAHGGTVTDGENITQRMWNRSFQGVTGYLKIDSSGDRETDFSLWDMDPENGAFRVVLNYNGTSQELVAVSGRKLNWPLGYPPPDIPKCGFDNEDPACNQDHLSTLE
- T1 sequence (peptide): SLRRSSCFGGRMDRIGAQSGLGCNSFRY
- assay: Octet, FabCys
Binary call on Kd with cut-off 0.2 nM: strictly below means MET, and equality or higher means NOT MET.

binder="ZZ15 (FabCys format) (Fab, V domains shown, Monovalent FabCys) VH: EVQLLESGGGLVQPGGSLRLSCAASGFTFASYAITWVRQAPGKGLEWVSTISGSGVYTYYAESVKGRFTISRDNSKNTLYLQMNSLRAEDTAVYYCARPYLGDRRSYGFDHWGQGTLVTVSS VL: QSALTQPASVSGSPGQSITISCTGTSSDVGSYNLVSWYQQHPGKAPKLMIYEGSKRPSGVSNRFSGSKSGNTASLTISGLQAEDEADYYCSSYGFHIVVVVFGGGTKLTVL" class=MET
binder="ZZ12 (FabCys format) (Fab, V domains shown, Monovalent FabCys) VH: EVQLVESGGGLVQPGGSLRLSCAASGFSFSKYYLNWVRQAPGKGLEWVASIHQQAHEKKYVESVKGRFTISRDNAKNSLYLQMNSLRAEDTAVYYCARSLRRRSTEHAGFDVWGQGTLVTVSS VL: DIQMTQSPSSLSASVGDRVTITCRASQGISNYLAWYQQKPGKVPKLLIYAASTLQSGVPSRFSGSGSGTDFTLTISSLQPEDVATYYCQQADKFPYTFGQGTKVEIK" class=MET
binder="ZZ16 (FabCys format) (Fab, V domains shown, Monovalent FabCys) VH: EVQLLESGGGLVQPGGSLRLSCAASGFTFGTYAMTWVRQAPGKGLEWVSSISASGYYANYAGSVKGRFTISRDNSKNTLYLQMNSLRAEDTAVYYCARPYLGDRRSYGFDHWGQGTLVTVSS VL: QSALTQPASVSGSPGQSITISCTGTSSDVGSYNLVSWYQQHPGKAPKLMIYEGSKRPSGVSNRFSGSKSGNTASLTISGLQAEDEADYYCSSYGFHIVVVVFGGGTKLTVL" class=MET
binder="ZZ13 (FabCys format) (Fab, V domains shown, Monovalent FabCys) VH: EVQLVESGGGLVQPGGSLRLSCAASGFTFSRYYINWVRQAPGKGLEWVASIHQHGLETRYVESVKGRFTISRDNAKNSLYLQMNSLRAEDTAVYYCARSLRRRSTEHAGFDVWGQGTLVTVSS VL: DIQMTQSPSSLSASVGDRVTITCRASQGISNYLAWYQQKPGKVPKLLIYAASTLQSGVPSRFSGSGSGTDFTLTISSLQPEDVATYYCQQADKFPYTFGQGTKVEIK" class=MET
binder="YY06 (FabCys format) (Fab, V domains shown, Monovalent FabCys) VH: EVQLLESGGGLVQPGGSLRLSCAASGFTFSSYAISWVRQAPGKGLEWVSAISGSGGSTYYAESVKGRFTISRDNSKNTLYLQMNSLRAEDTAVYYCARPYLGDRRSYGFDHWGQGTLVTVSS VL: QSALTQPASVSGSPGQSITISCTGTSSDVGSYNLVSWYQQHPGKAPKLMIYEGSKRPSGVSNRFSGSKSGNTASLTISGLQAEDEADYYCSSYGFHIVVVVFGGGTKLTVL" class="NOT MET"

meta.source: patent US20240052042A1
